meta.source: PubChem BioAssay AID463173

- Test system: Wild type
- test.details: S. aureus survival, RN4220 and DeltatarO strains – OD600, teichoic acid synthesis inhibitors, primary screen (AID 463173)
- cond: S. aureus RN4220 wild type/DeltatarO growth, OD600, 18 h, screened at 18.75 µg/mL (by protocol)
The campaign covered roughly 52,000 compounds. About 1,700 (3.3%) were called active. No stated cut-off is given here; in the data, active means survival mostly below about 52% (no sharp cut-off); inactive means mostly above about 56%. Many of the other results were omitted from the sample, so actives are more common in it than they were.
Valid outcomes are listed here; reply with one: True for active, False for inactive

QUERY: Can you look up the reported call for COc1ccc(Cn2c(CO)cnc2SCc2ccc(F)cc2)cc1 for me?
RESULT: True

QUERY: Answer briefly: the call reported for Oc1ccccc1-c1nnc(SCc2ccccc2)o1 in this assay.
RESULT: False

Others:
QUERY: Recorded test call requested for CCCNC(=O)C1CCC(Cn2c(=O)c3sccc3n(CC(=O)NCc3cccc(OC)c3OC)c2=O)CC1 (configuration not stated)
RESULT: False

QUERY: Which outcome was assigned to COc1ccc(N2C(=O)CSC23C(=O)N(Cc2ccc(C)cc2)c2ccccc23)cc1Cl (configuration not stated) in this test?
RESULT: False

QUERY: Give the logged outcome of this assay for the following molecule: COc1ccc(Cn2c(CO)cnc2SCc2ccccc2)cc1
RESULT: False

QUERY: // return assay outcome for CCc1ccccc1NC(=O)[C@@H](c1ccccc1)N1Cc2ccccc2C1=O
RESULT: False

QUERY: Field: outcome | Entry: CC(C)c1ccccc1NC(=O)CC(C)(C)C
RESULT: False

QUERY: Hi, sorry to bother you, what did the test record for COc1ccc(CNCCC(c2ccc3c(c2)OCO3)c2ccccc2OC)cc1 (configuration not stated) ?
RESULT: False
